- System Under Test: TNF-R1–TNF-α interaction (Homo sapiens, UniProt P01375+P19438)
- Sequence (P19438 30-211): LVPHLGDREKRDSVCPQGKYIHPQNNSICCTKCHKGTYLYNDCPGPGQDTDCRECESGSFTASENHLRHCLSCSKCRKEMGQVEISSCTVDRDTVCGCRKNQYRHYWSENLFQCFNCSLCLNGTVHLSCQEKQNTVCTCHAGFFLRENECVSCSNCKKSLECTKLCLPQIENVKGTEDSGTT
- Sequence (P01375 85-233): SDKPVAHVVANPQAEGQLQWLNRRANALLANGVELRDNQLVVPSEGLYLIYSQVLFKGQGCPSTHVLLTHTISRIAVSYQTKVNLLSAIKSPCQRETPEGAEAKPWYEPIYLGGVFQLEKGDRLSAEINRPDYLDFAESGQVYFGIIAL
- Procedure Text: cell-free ELISA-type counter-assay, inhibition of TNF-R1–TNF-α interaction
Readout Kind: IC50 (µM)
Give the value in µM but do not write µM after it.

Reported IC50 (TNF-R1–TNF-α interaction (Homo sapiens, UniProt P01375+P19438)) for entry Nc1c(/N=N/c2ccc(-c3ccc(/N=N/c4cc(S(=O)(=O)O)c5ccccc5c4N)cc3)cc2)cc(S(=O)(=O)O)c2ccccc12 [Congo red] is 6

###

- System Under Test: SARS-CoV-2-S-RBD–hACE2 PPI (Severe acute respiratory syndrome coronavirus 2, UniProt P0DTC2)
Entries annotated with measured IC50
Just the number please, in µM, no unit attached.

CCOc1ccc(N=Nc2ccc(-c3ccc(N=Nc4c(O)ccc5cc(S(=O)(=O)O)cc(S(=O)(=O)O)c45)c(C)c3)cc2C)cc1 : 4.25

Turning now to a further record.
The compound Nc1ccc(N=Nc2ccc(-c3ccc(N=Nc4c(S(=O)(=O)O)cc5cc(S(=O)(=O)O)c(N=Nc6ccccc6)c(O)c5c4N)cc3)cc2)c(N)c1 showed IC50 equal to 2.57
